Data origin: patent US8071586B2

TEST_SYSTEM: human chemokine receptor 2 isoform B (CCR2) (Homo sapiens, UniProt P41597)
MEASUREMENT_DESCRIPTION: Calcium mobilization assay (FLIPR, MCP-1 stimulated CHOK1-CCR2B-A5 cells)
CONDITION_SUMMARY: Ca mobilisation assay, CCR2 antagonist activity, inhibition of MCP-1 induced calcium increase
Exercise: state measured IC50 for each of the molecules provided.
Numbers only, in nM.

Example molecules with recorded IC50:
molecule="O=C1CCN(C(=O)Nc2ccc(Cl)c(Cl)c2)CCN1CCCN1CCC2(CC2)[C@H](O)C1 [Example 54]" observed_measurement=6
molecule="C[C@H]1C(=O)N(CCCCN2CCC3(CC3)[C@H](O)C2)CCN1C(=S)Oc1ccc2ccccc2c1 [Example 92]" observed_measurement=624
molecule="COC(=O)OC[C@H](CCN1CCC2(CC2)[C@H](O)C1)N1CCN(C(=O)Nc2cccc(Cl)c2)[C@@H](C)C1=O [Example 110]" observed_measurement=5
molecule="C[C@H]1C(=O)N(C[C@@H](O)CN2CCC3(CC3)[C@H](O)C2)CCN1C(=O)Nc1cccc(Cl)c1 [Example 121]" observed_measurement=6
molecule="C[C@H]1C(=O)N([C@@H](CCN2CCC3(CC3)[C@H](O)C2)COC(=O)c2ccccc2)CCN1C(=O)Nc1ccc(Cl)c(Cl)c1 [Example 118]" observed_measurement=3

Hi team, please reply with IC50 for each item in this list.
1. C[C@H]1C(=O)N(CCCN2CCCCC2)CCN1C(=O)Nc1ccc2ccccc2c1 [Example 40]
2. C[C@H]1C(=O)N([C@@H](CCN2CCC3(CC3)[C@H](O)C2)C(=O)N(C)C)CCN1C(=O)Nc1ccc(Cl)c(Cl)c1 [Example 124]
3. C[C@H]1C(=O)N(CCCCN2CCC3(CC3)[C@H](O)C2)CCN1C(=O)Nc1cccc(Cl)c1 [Example 87]

RESULT:
360
4
5

Hi team, please reply with IC50 for each item in this list.
1. COCC(CCN1CCC2(CC2)[C@H](O)C1)N1CC(C)N(C(=O)Nc2ccc(Cl)c(Cl)c2)CCC1=O (stereo in doubt) [Example 68]
2. CC(=O)OC[C@H](CCN1CCC2(CC2)[C@H](O)C1)N1CCN(C(=O)Nc2ccc(Cl)c(Cl)c2)[C@@H](C)C1=O [Example 108]
3. C[C@H]1C(=O)N(CCCCN2CCC3(CC3)[C@H](O)C2)CCN1C(=O)Nc1cccc(-c2ccncc2)c1 [Example 95]
4. COC[C@H](CCN1CCCCC1)N1CCN(C(=O)Nc2ccc(Cl)c(Cl)c2)[C@@H](C)C1=O [Example 81]
5. C[C@H]1C(=O)N([C@@H](CCN2CCC3(CC3)[C@H](O)C2)COC(=O)C(C)(C)C)CCN1C(=O)Nc1ccc(Cl)c(Cl)c1 [Example 114]
6. C[C@H]1C(=O)N(CCN2CCC3(CC3)[C@H](O)C2)CCN1C(=O)Nc1ccc(Cl)c(Cl)c1 [Example 104]
7. COC(=O)[C@H](CCN1CCC2(CC2)[C@H](O)C1)N1C[C@@H](C)N(C(=O)Nc2cccc(Cl)c2)CCC1=O [Example 62]

RESULT:
1. 3
2. 2
3. 565
4. 9
5. 6
6. 382
7. 30

---

TEST_SYSTEM: human chemokine receptor 2 isoform B (CCR2) (Homo sapiens)
MEASUREMENT_DESCRIPTION: Calcium mobilization assay (FLIPR, MCP-1 stimulated CHOK1-CCR2B-A5 cells)
CONDITION_SUMMARY: Ca mobilisation assay, CCR2 antagonist activity, inhibition of MCP-1 induced calcium increase
Description: Calcium Mobilization Assay […] Test compounds were added to the assay plate and agonist activity was monitored as fluorescence for 80 seconds with a FLIPR (488 nm excitation; 510-570 nm emission; Molecular Devices). After 20-30 min. of incubation at 30° C., […] MCP-1 (R&D; Roche) was added and fluorescence was monitored again for 80 seconds. Increases in intracellular calcium are reported as maximum fluorescence after agonist exposure minus basal fluorescence before exposure. […]
Exercise: state measured IC50 for each of the compounds provided.
Numbers only, in nM.

compound=C[C@H]1C(=O)N(CCCN2CCC3(CC3)[C@H](O)C2)CCN1C(=S)Nc1ccc(Cl)c(Cl)c1 observed_measurement=2
compound=O=C(Nc1ccc(Cl)c(Cl)c1)N1CCN(CCCN2CCCCC2)S(=O)(=O)CC1 observed_measurement=370
compound=C[C@H]1C(=O)N(CCCN2CCCCC2)CCN1C(=O)Nc1ccc(Cl)c(Cl)c1 observed_measurement=50
compound="COCC(CCN1CCC2(CC2)[C@H](O)C1)N1CCN(C(=O)Nc2cccc(Cl)c2)CCC1=O (stereo partly drawn)" observed_measurement=50
compound=COC[C@H](CCN1CCC2(CC2)[C@H](O)C1)N1CCN(C(=O)Nc2cccc(Cl)c2)[C@H](C)C1=O observed_measurement=180
compound=O=C1CCN(C(=O)Nc2ccc(Cl)c(Cl)c2)CCN1CCCN1CCCCC1 observed_measurement=980
compound=C[C@H]1C(=O)N(CCCN2CCC3(CC3)[C@H](O)C2)CCN1C(=O)Nc1ccc(-c2ccccc2)cc1 observed_measurement=3
compound="COCC(CCN1CCC2(CC2)[C@H](O)C1)N1CCN(C(=O)Oc2ccc(Cl)c(Cl)c2)CCC1=O (stereo partly drawn)" observed_measurement=370

Hi team, please reply with IC50 for each item in this list.
1. CCCCCC(=O)OC[C@H](CCN1CCC2(CC2)[C@H](O)C1)N1CCN(C(=O)Nc2ccc(Cl)c(Cl)c2)[C@@H](C)C1=O
2. C[C@H]1C(=O)N([C@@H](CCN2CCC3(CC3)[C@H](O)C2)C(=O)N(C)C)CCN1C(=O)Nc1cccc(Cl)c1
3. COC[C@H](CCN1CCC2(CC2)[C@H](O)C1)N1CCN(C(=O)Nc2cccc(Cl)c2)[C@@H](C)C1=O

RESULT:
5
16
4

---

TEST_SYSTEM: human chemokine receptor 2 isoform B (CCR2) (Homo sapiens, UniProt P41597)
Sequence (P41597 1-360 isoform P41597-2): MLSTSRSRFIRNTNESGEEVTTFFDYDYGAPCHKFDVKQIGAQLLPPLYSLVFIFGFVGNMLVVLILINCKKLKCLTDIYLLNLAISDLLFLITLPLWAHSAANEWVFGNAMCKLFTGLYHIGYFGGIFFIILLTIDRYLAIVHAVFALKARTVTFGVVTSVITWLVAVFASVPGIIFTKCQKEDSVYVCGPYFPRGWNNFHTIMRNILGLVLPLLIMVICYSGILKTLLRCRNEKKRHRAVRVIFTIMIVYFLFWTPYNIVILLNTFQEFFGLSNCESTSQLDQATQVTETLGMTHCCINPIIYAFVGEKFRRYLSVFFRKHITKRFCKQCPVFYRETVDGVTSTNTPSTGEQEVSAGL
MEASUREMENT_DESCRIPTION: Calcium mobilization assay (FLIPR, MCP-1 stimulated CHOK1-CCR2B-A5 cells)
CONDITION_SUMMARY: Ca mobilisation assay, CCR2 antagonist activity, inhibition of MCP-1 induced calcium increase
MEASURED_QUANTITY: pIC50
Numbers only, as −log10 of the molar value.

Example compounds with recorded pIC50:
record_smiles=C[C@@H]1CN(CCCN2CCC3(CC3)[C@H](O)C2)C(=O)CCN1C(=O)Nc1cccc(Cl)c1 test_system="human chemokine receptor 2 isoform B (CCR2) (Homo sapiens, UniProt P41597)" observed_measurement=7.22
record_smiles=COC(=O)OC[C@H](CCN1CCC2(CC2)[C@H](O)C1)N1CCN(C(=O)Nc2ccc(Cl)c(Cl)c2)[C@@H](C)C1=O test_system="human chemokine receptor 2 isoform B (CCR2) (Homo sapiens, UniProt P41597)" observed_measurement=8.70
record_smiles=CC(=O)OC[C@H](CCN1CCC2(CC2)[C@H](O)C1)N1CCN(C(=O)Nc2cccc(Cl)c2)[C@@H](C)C1=O test_system="human chemokine receptor 2 isoform B (CCR2) (Homo sapiens, UniProt P41597)" observed_measurement=8.00

Hi team, please reply with pIC50 for each item in this list.
1. C[C@H]1C(=O)N(CCCN2CCC(O)CC2)CCN1C(=O)Nc1ccc(Cl)c(Cl)c1
2. COC(=O)[C@H](CCN1CCC2(CC2)[C@H](O)C1)N1CCN(C(=O)Nc2cccc(Cl)c2)CCC1=O
3. CCNC(=O)OC[C@H](CCN1CCC2(CC2)[C@H](O)C1)N1CCN(C(=O)Nc2cccc(Cl)c2)[C@@H](C)C1=O
4. COC[C@H](CCN1CCC2(CC2)[C@H](O)C1)N1CCN(C(=O)Nc2cccc(F)c2)[C@@H](C)C1=O

RESULT:
1: 6.80; 2: 6.57; 3: 7.77; 4: 8.05

---

Exercise: state measured pIC50 for each of the compounds provided.
TEST_SYSTEM: human chemokine receptor 2 isoform B (CCR2) (Homo sapiens, UniProt P41597)
MEASUREMENT_DESCRIPTION: Calcium mobilization assay (FLIPR, MCP-1 stimulated CHOK1-CCR2B-A5 cells)
CONDITION_SUMMARY: Ca mobilisation assay, CCR2 antagonist activity, inhibition of MCP-1 induced calcium increase
Give bare numbers, as −log10 of the molar value.

record_smiles=C[C@@H]1CN(CCCN2CCCCC2)C(=O)CCN1C(=S)Nc1ccc(Cl)c(Cl)c1 measured_quantity=pIC50 observed_measurement=6.24

Hi team, please reply with pIC50 for each item in this list.
1. O=C(Nc1ccc(Cl)c(Cl)c1)N1CCC(=O)N([C@H](CO)CCN2CCC3(CC3)[C@H](O)C2)CC1
2. C[C@H]1C(=O)N(CCCCN2CCC3(CC3)[C@H](O)C2)CCN1C(=O)Nc1cccc(-c2ccccc2)c1
3. C[C@H]1C(=O)N(CCCCN2CCC3(CC3)[C@H](O)C2)CCN1C(=O)Nc1ccc(Cl)c(Cl)c1
4. C[C@H]1C(=O)N(CCCN2CCC3(CC3)[C@H](O)C2)CCN1C(=O)Nc1cccc(F)c1
5. C[C@H]1C(=O)N(CCCN2CCC3(CC3)[C@H](O)C2)CCN1C(=O)Nc1cccc(-c2ccccc2)c1

RESULT:
[9.00, 8.70, 9.00, 7.68, 8.70]

QUERY: Entry under review: O=S1(=O)CCN(C(=S)Nc2ccc(Cl)c(Cl)c2)CCN1CCCN1CCCCC1 . Reported pIC50?
RESULT: 6.11
